Assay Target: Voltage-gated inwardly rectifying potassium channel KCNH2 (Homo sapiens, UniProt Q12809)
Run Description: Allosteric modulation of Kv11.1 channel (unknown origin) expressed in HEK293 cells assessed as shift of inhibition constant for astemizole-induced displacement of [3H]-dofetilide binding at 10 uM after 1 hr relative to control
Assay type: cell-based
Measurement Setup: hek293, 1 h
Quick rule: fold change (FC) of at least 4 means true, below that means false.

Structure Smiles	Class Label
O=C(COc1ccc(C(=O)c2cccc(Cl)c2)cc1)Nc1cccnc1	false
O=C(COc1ccc(C(=O)c2cc(F)ccc2Br)cc1)Nc1cccnc1	true
O=C(COc1ccc(C(=O)c2cccc(Br)c2)cc1)Nc1cccnc1	false
O=C(COc1ccc(C(=O)c2cccc(F)c2)cc1)Nc1cccnc1	false

---

Assay Target: Voltage-gated inwardly rectifying potassium channel KCNH2 (Homo sapiens)
Run Description: Allosteric modulation of Kv11.1 channel (unknown origin) expressed in HEK293 cells assessed as shift of inhibition constant for dofetilide-induced displacement of [3H]-dofetilide binding at 10 uM after 1 hr relative to control
Format: cell-based
Measurement Setup: hek293, 1 h
fold change (FC) under 2 gets true (1), anything at or over 2 gets false (0).

Structure Smiles	Class Label
O=C(COc1ccc(C(=O)c2ccccc2Br)cc1)Nc1cccnc1	false (0)
O=C(COc1ccc(C(=O)c2cccc(F)c2)cc1)Nc1cccnc1	true (1)
O=C(COc1ccc(C(=O)c2cccc(Br)c2)cc1)Nc1cccnc1	true (1)
O=C(COc1ccc(C(=O)c2cc(F)ccc2Br)cc1)Nc1cccnc1	false (0)
O=C(COc1ccc(C(=O)c2cccc(Cl)c2)cc1)Nc1cccnc1	false (0)

---

Assay Target: UniProtKB Q12809
Run Description: Allosteric modulation of [3H]-dofetilide binding at Kv11.1 channel (unknown origin) expressed in HEK293 cells at 10 uM after 6 mins by scintillation spectrometer analysis relative to control
Format: cell-based
Measurement Setup: HEK293 cells expressing Kv11.1 channel, probe [3H]-dofetilide, read-out: Activity
Quantity Name: activity at 0.1 h, 10 µM (%)

Structure Smiles	Quantity Name	Unit Annotation	Recorded Value
O=C(COc1ccc(C(=O)c2cc(F)ccc2Br)cc1)Nc1cccnc1	activity at 0.1 h, 10 µM	%	38
O=C(COc1ccc(C(=O)c2ccccc2Br)cc1)Nc1cncnc1	activity at 0.1 h, 10 µM	%	87
O=C(COc1ccc(C(=O)c2ccc(Cl)cc2)cc1)Nc1cccnc1	activity at 0.1 h, 10 µM	%	104
O=C(COc1ccc2ccccc2c1Br)Nc1cccnc1	activity at 0.1 h, 10 µM	%	66
O=C(COc1ccc(C(=O)c2ccc(F)cc2)cc1)Nc1cccnc1	activity at 0.1 h, 10 µM	%	65
O=C(COc1ccc(C(=O)c2cccc(F)c2)cc1)Nc1cccnc1	activity at 0.1 h, 10 µM	%	47
O=C(COc1ccc(C(=O)c2ccccc2Cl)cc1)Nc1cccnc1	activity at 0.1 h, 10 µM	%	71
Cc1cncc(NC(=O)COc2ccc(C(=O)c3ccccc3Br)cc2)c1	activity at 0.1 h, 10 µM	%	121
Cc1ccncc1NC(=O)COc1ccc(C(=O)c2ccccc2Br)cc1	activity at 0.1 h, 10 µM	%	108
O=C(COc1ccc2c(c1)-c1ccccc1C2=O)Nc1cccnc1	activity at 0.1 h, 10 µM	%	79
O=C(COc1ccc(C(=O)c2ccccc2Br)cc1)Nc1cnc2ccccc2c1	activity at 0.1 h, 10 µM	%	87
Cc1ccc(C(=O)c2ccc(OCC(=O)Nc3cccnc3)cc2)cc1	activity at 0.1 h, 10 µM	%	97
O=C(COc1ccc(C(=O)c2cccc(Br)c2)cc1)Nc1cccnc1	activity at 0.1 h, 10 µM	%	57
O=C(COc1ccc(C(=O)c2ccccc2)cc1)Nc1cccnc1	activity at 0.1 h, 10 µM	%	78
O=C(COc1ccc(C(=O)c2cccc(F)c2Br)cc1)Nc1cccnc1	activity at 0.1 h, 10 µM	%	85
O=C(COc1ccc(C(=O)c2ccccc2)c(Br)c1)Nc1cccnc1	activity at 0.1 h, 10 µM	%	96
O=C(COc1ccc(C(=O)c2ccccc2)cc1Br)Nc1cccnc1	activity at 0.1 h, 10 µM	%	96
O=C(COc1ccc(C(=O)c2cccc(I)c2)cc1)Nc1cccnc1	activity at 0.1 h, 10 µM	%	62
Cc1ccc(NC(=O)COc2ccc(C(=O)c3ccccc3Br)cc2)cn1	activity at 0.1 h, 10 µM	%	105
O=C(COc1ccc(C(=O)c2ccccc2I)cc1)Nc1cccnc1	activity at 0.1 h, 10 µM	%	72
O=C(COc1ccc(C(=O)c2ccccc2Br)cc1)Nc1ccc(Cl)nc1	activity at 0.1 h, 10 µM	%	95
O=C(COc1ccc(C(=O)c2ccccc2Br)cc1)Nc1ccc(Cl)nn1	activity at 0.1 h, 10 µM	%	92
O=C(COc1ccc(C(=O)c2ccccc2Br)cc1)Nc1cccnc1	activity at 0.1 h, 10 µM	%	44

---

Consider the following compounds and their measured EC50 readings.
Assay Target: Voltage-gated inwardly rectifying potassium channel KCNH2 (Homo sapiens, UniProt Q12809)
Run Description: Induction of dissociation of [3H]-dofetilide from Kv11.1 channel (unknown origin) assessed as dissociation rate expressed in HEK293 cells after 1 hr

Structure Smiles	Assay Target	EC50 [µM]
O=C(COc1ccc(C(=O)c2cc(F)ccc2Br)cc1)Nc1cccnc1	Voltage-gated inwardly rectifying potassium channel KCNH2 (Homo sapiens, UniProt Q12809)	4.6
O=C(COc1ccc(C(=O)c2ccccc2Br)cc1)Nc1cccnc1	Voltage-gated inwardly rectifying potassium channel KCNH2 (Homo sapiens, UniProt Q12809)	12

---

Assay Target: Voltage-gated inwardly rectifying potassium channel KCNH2 (Homo sapiens, UniProt Q12809)
Run Description: Induction of dissociation of [3H]-dofetilide from Kv11.1 channel (unknown origin) assessed as dissociation rate expressed in HEK293 cells at 50 uM after 1 hr relative to control
Type: cell-based
Measurement Setup: hek293, 1 h
Quick rule: fold change (FC) of at least 2 means 1, below that means 0.

Structure Smiles	Assay Target	Class Label
O=C(COc1ccc(C(=O)c2cc(F)ccc2Br)cc1)Nc1cccnc1	Voltage-gated inwardly rectifying potassium channel KCNH2 (Homo sapiens, UniProt Q12809)	1
O=C(COc1ccc(C(=O)c2cccc(F)c2)cc1)Nc1cccnc1	Voltage-gated inwardly rectifying potassium channel KCNH2 (Homo sapiens, UniProt Q12809)	0
O=C(COc1ccc(C(=O)c2cccc(Br)c2)cc1)Nc1cccnc1	Voltage-gated inwardly rectifying potassium channel KCNH2 (Homo sapiens, UniProt Q12809)	0
O=C(COc1ccc(C(=O)c2cccc(Cl)c2)cc1)Nc1cccnc1	Voltage-gated inwardly rectifying potassium channel KCNH2 (Homo sapiens, UniProt Q12809)	0
O=C(COc1ccc(C(=O)c2ccccc2Br)cc1)Nc1cccnc1	Voltage-gated inwardly rectifying potassium channel KCNH2 (Homo sapiens, UniProt Q12809)	1

---

Assay Target: Kv11.1 (KCNH2, hERG) potassium channel (Homo sapiens)
Sequence (Q12809 whole entry): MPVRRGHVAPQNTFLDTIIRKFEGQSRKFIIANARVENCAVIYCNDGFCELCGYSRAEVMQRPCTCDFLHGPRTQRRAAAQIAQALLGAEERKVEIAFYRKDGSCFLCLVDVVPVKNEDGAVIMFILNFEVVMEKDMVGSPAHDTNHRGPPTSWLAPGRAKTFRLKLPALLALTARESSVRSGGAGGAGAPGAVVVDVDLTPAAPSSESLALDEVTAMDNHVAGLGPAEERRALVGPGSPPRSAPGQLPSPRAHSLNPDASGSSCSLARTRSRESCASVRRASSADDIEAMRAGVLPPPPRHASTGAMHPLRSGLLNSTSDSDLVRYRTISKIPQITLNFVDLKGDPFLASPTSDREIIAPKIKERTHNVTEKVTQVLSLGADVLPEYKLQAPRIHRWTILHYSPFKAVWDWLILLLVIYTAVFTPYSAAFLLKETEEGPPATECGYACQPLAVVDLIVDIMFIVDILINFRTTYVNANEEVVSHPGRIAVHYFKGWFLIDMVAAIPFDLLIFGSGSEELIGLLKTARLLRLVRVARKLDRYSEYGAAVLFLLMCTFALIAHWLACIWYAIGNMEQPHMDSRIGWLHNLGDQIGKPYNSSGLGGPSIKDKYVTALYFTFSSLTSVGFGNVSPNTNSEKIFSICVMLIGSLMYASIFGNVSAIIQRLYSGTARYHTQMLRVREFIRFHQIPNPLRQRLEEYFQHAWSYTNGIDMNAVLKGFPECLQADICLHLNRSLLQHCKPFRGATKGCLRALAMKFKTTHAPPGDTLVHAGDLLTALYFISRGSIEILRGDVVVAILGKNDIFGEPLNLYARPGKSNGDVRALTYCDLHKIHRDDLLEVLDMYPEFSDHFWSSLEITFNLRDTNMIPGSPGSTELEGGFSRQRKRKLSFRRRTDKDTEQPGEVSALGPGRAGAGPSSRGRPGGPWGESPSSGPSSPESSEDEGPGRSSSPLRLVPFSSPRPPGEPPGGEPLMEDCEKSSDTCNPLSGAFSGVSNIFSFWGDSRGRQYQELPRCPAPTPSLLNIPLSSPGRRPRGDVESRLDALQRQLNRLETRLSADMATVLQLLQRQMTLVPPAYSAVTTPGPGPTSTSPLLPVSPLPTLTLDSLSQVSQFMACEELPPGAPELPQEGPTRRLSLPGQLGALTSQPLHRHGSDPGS
Run Description: Allosteric modulation of [3H]-dofetilide binding at Kv11.1 channel (unknown origin) expressed in HEK293 cells at 10 uM after 6 mins by scintillation spectrometer analysis relative to control
Assay type: cell-based
Measurement Setup: HEK293 cells expressing Kv11.1 channel, probe [3H]-dofetilide, read-out: Activity

Structure Smiles	Unit Annotation	activity at 0.1 h, 10 µM
O=C(COc1ccc(C(=O)c2cccc(Cl)c2)cc1)Nc1cccnc1	%	43
O=C(COc1ccc(C(=O)c2ccccc2Br)cc1)Nc1cnccn1	%	92
COc1cncc(NC(=O)COc2ccc(C(=O)c3ccccc3Br)cc2)c1	%	107
O=C(COc1ccc(C(=O)c2ccccc2F)cc1)Nc1cccnc1	%	85
COc1ccncc1NC(=O)COc1ccc(C(=O)c2ccccc2Br)cc1	%	105
COc1ccc(NC(=O)COc2ccc(C(=O)c3ccccc3Br)cc2)cn1	%	124
